# experiment_notes: Solubility of the compound in […] at pH 2 at 200 uM incubated for 24 hrs by UV-vis detection based HPLC analysis
# Type: physicochemical
readout_type: solubility at 24 h, 200 µM (µM)
Output spec: scalar in µM, unitless text.

# annotated cases, reported solubility at 24 h, 200 µM shown
>  <record_smiles>
Cc1cc2ccc(C[C@@H]3CC[C@@]4(O)[C@@H]3O[C@@H](n3ccc5c(N)ncnc53)[C@@H]4O)cc2nc1N

>  <readout_type>
solubility at 24 h, 200 µM

>  <measure_unit>
µM

>  <value_measured>
151

$$$$
>  <record_smiles>
Nc1nc2cc(C[C@@H]3CC[C@@]4(O)[C@@H]3O[C@@H](n3ccc5c(N)ncnc53)[C@@H]4O)cc(F)c2cc1F

>  <readout_type>
solubility at 24 h, 200 µM

>  <measure_unit>
µM

>  <value_measured>
171

$$$$
>  <record_smiles>
Nc1nc2cc(O[C@H]3CC[C@@]4(O)[C@@H]3O[C@@H](n3ccc5c(N)ncnc53)[C@@H]4O)ccc2cc1F

>  <readout_type>
solubility at 24 h, 200 µM

>  <measure_unit>
µM

>  <value_measured>
158

$$$$
>  <record_smiles>
Cc1nc(N)c2ccn([C@@H]3C[C@@H]4[C@H](Cc5ccc6cc(F)c(N)nc6c5)CC[C@]4(O)[C@H]3O)c2n1

>  <readout_type>
solubility at 24 h, 200 µM

>  <measure_unit>
µM

>  <value_measured>
149

$$$$

Next compound, please.
Input: Tell me solubility at 24 h, 200 µM reported for Cc1ncnc2c1ccn2[C@@H]1O[C@@H]2[C@@H](Oc3ccc4cc(Cl)c(N)nc4c3)CC[C@]2(O)[C@H]1O
Output: 160
